BR (beating rate), % change from baseline listing for selected compounds.
# System: hiPSC-CMs (iCell-Cardiomyocytes^2)
# Condition Parameters: 3 µM, 72h
Quantity Measured: BR (beating rate), % change from baseline (%)

{"Smiles Data": "C[C@H](CS)C(=O)N1CCC[C@H]1C(=O)O", "Measured Value": -9}
{"Smiles Data": "N=C(N)c1ccc(OCCCCCOc2ccc(C(=N)N)cc2)cc1", "Measured Value": -54}
{"Smiles Data": "CC1(C)S[C@@H]2[C@H](NC(=O)[C@H](N)c3ccc(O)cc3)C(=O)N2[C@H]1C(=O)O", "Measured Value": -4}

###

# System: hiPSC-CMs (iCell-Cardiomyocytes^2)
# Condition Parameters: 0.3 µM, 96h
Catalogue of compounds with associated Beating below threshold, number of observations/total well numbers
Quantity Measured: Beating below threshold, number of observations/total well numbers

{"Compound": "N=C(N)c1ccc(OCCCCCOc2ccc(C(=N)N)cc2)cc1", "Measured Value": "0/5"}
{"Compound": "COc1nc(N)nc2c1ncn2[C@@H]1O[C@H](COP(=O)(N[C@@H](C)C(=O)OCC(C)(C)C)Oc2cccc3ccccc23)[C@@H](O)[C@@]1(C)O (stereo partly shown)", "Measured Value": "0/5"}
{"Compound": "CC(C)(Sc1cc(C(C)(C)C)c(O)c(C(C)(C)C)c1)Sc1cc(C(C)(C)C)c(O)c(C(C)(C)C)c1", "Measured Value": "0/5"}
{"Compound": "COc1cccc2c1C(=O)c1c(O)c3c(c(O)c1C2=O)C[C@@](O)(C(=O)CO)C[C@@H]3O[C@H]1C[C@H](N)[C@H](O)[C@H](C)O1", "Measured Value": "0/5"}
{"Compound": "Cc1cn(-c2cc(NC(=O)c3ccc(C)c(Nc4nccc(-c5cccnc5)n4)c3)cc(C(F)(F)F)c2)cn1", "Measured Value": "0/5"}
{"Compound": "COc1cc2c(Nc3ccc(Br)cc3F)ncnc2cc1OCC1CCN(C)CC1", "Measured Value": "0/5"}
{"Compound": "C#Cc1cccc(Nc2ncnc3cc(OCCOC)c(OCCOC)cc23)c1", "Measured Value": "0/5"}

###

The compounds listed here are annotated with their Beating below threshold, number of observations/total well numbers.
# Test system: hiPSC-CMs (iCell-Cardiomyocytes^2)
# Condition Parameters: 1 µM, 72h
Quantity Measured: Beating below threshold, number of observations/total well numbers

{"Compound": "COc1cc2c(Nc3ccc(Br)cc3F)ncnc2cc1OCC1CCN(C)CC1", "Measured Value": "1/5"}
{"Compound": "CC(C)(Sc1cc(C(C)(C)C)c(O)c(C(C)(C)C)c1)Sc1cc(C(C)(C)C)c(O)c(C(C)(C)C)c1", "Measured Value": "0/4"}
{"Compound": "C#Cc1cccc(Nc2ncnc3cc(OCCOC)c(OCCOC)cc23)c1", "Measured Value": "0/5"}
{"Compound": "COc1cccc2c1C(=O)c1c(O)c3c(c(O)c1C2=O)C[C@@](O)(C(=O)CO)C[C@@H]3O[C@H]1C[C@H](N)[C@H](O)[C@H](C)O1", "Measured Value": "0/5"}
{"Compound": "Cc1cn(-c2cc(NC(=O)c3ccc(C)c(Nc4nccc(-c5cccnc5)n4)c3)cc(C(F)(F)F)c2)cn1", "Measured Value": "0/5"}
{"Compound": "N=C(N)c1ccc(OCCCCCOc2ccc(C(=N)N)cc2)cc1", "Measured Value": "0/6"}
{"Compound": "COc1nc(N)nc2c1ncn2[C@@H]1O[C@H](COP(=O)(N[C@@H](C)C(=O)OCC(C)(C)C)Oc2cccc3ccccc23)[C@@H](O)[C@@]1(C)O (stereo partly shown)", "Measured Value": "0/5"}
